The reported measurements were obtained from PubChem BioAssay (NCI).

Entries and their growth inhibition
# Test: NCI Yeast Anticancer Drug Screen. Data for the sgs1 mgt1 strain (AID 161);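 also: 0% = growth of cultures given vehicle only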
# Experimental conditions: S. cerevisiae sgs1 mgt1 strain, at 50.0 µM, stronger effect = higher value
About 79,000 compounds went through this panel and 15% of them were active in at least one assay; those are over-represented in the sample as a whole.
The reply should contain only the number, in %.

Worked cases, growth inhibition given:
Molecule: CCOC(=O)c1c(C)[nH]c(-c2csc(N)n2)c1C
Unit label: %
Recorded value: 21.4

Molecule: CNC(=S)N(C)/N=C/c1ccccc1
Unit label: %
Recorded value: -3.75

Molecule: Nc1nc2nsnc2nc1N
Unit label: %
Recorded value: 13.6

Molecule: C/C(=N/NC(N)=S)c1cn[nH]c1C
Unit label: %
Recorded value: -16.1

Molecule: O=[N+]([O-])c1ccccc1S(=O)NCc1c(Cl)cccc1Cl (stereo unspecified)
Unit label: %
Recorded value: 24.5

Molecule: CCC[n+]1cccc(C#N)c1
Unit label: %
Recorded value: -7.35

Molecule: Fc1ccc(C(c2ccc(F)cc2)C(F)(F)F)cc1
Unit label: %
Recorded value: 24.9

Molecule: Cc1ccsc1/C=N/Nc1cc(C)c2ccccc2n1
Unit label: %
Recorded value: 40

Molecule: CCOC(=O)CCCN(c1ccc(OC)c(OC)c1)S(=O)(=O)c1ccc(C)cc1
Unit label: %
Recorded value: 43

Molecule: N#CC1(Nc2ccc(-c3ccc(NC4(C#N)CCCC4)cc3)cc2)CCCC1
Unit label: %
Recorded value: -36.5

Input: Reported growth inhibition for COC(=O)c1cccc2ccc3cccc(C=O)c3c12 : what is it?
Output: -5.9

Input: Reported growth inhibition for O=S(=O)(Cc1ccccc1)CC(Br)CBr (stereo unspecified) : what is it?
Output: 96.1

Input: Reported growth inhibition for CCC(CC)(SC(C)C(N)=O)C(C)=O (stereo unspecified) : what is it?
Output: -16.3

Input: Reported growth inhibition for COc1ccccc1C(O)C(C)(C)C (stereo unspecified) : what is it?
Output: 7.5

Input: Reported growth inhibition for FC1(F)SC2CCCCCCCCCCC2C1(F)F (stereo unspecified) : what is it?
Output: -20.4

Input: Reported growth inhibition for COc1ccc2c(c1)CCC(OS(=O)(=O)CC13CCC(CC1=O)C3(C)C)C2=O (stereo unspecified) : what is it?
Output: -15.2
